Ref: patent US12448388B2

Test system: HCT116 MTAP-deleted cell lines
Assay: Cell viability assay (CellTiter-Glo, 7 days), HCT116 MTAP-deleted
Format: cell-based
Details: Homo sapiens, HCT-116; cell viability assay, HCT116 MTAP-deleted; class symbols; read-out: CC50
OUTCOME_MEASURE: CC50

// worked examples, CC50 included
{"columns": ["COMPOUND", "CC50"],
 "data": [
  ["CN(C(=O)c1cc2c(cc1F)nc(N)c1cncn12)[C@@H]1COc2cc([C@@H]3C[C@H]3C(F)F)ccc21 (single isomer, unassigned) [Ff-504]", "< 100 nM"],
  ["Nc1nc2cnc(C(=O)N3CCC[C@@H]4Oc5cc(OC(F)(F)F)c(F)cc5[C@@H]43)cc2n2cncc12 [Ff-378]", "< 100 nM"],
  ["Nc1nc2cc(F)c(C(=O)N3CCC[C@@H]4OCc5cc(OC(F)F)ccc5[C@@H]43)cc2n2cncc12 (single isomer, unassigned) [Ff-392]", "< 100 nM"],
  ["Nc1nc2cnc(C(=O)N3CC[C@H]4C[C@@H]3c3ccc(OC(F)(F)F)cc3O4)cc2n2cncc12 [Ff-685]", "< 100 nM"],
  ["Cc1nn(C)cc1N(Cc1ccc(C(F)(F)F)cc1F)C(=O)c1cc2c(cc1F)nc(N)c1cncn12 [Ff-413]", "< 100 nM"],
  ["CN(C(=O)c1cc2c(cc1F)nc(N)c1cncn12)[C@@H]1COc2c1ccc(Cl)c2Cl (single isomer, unassigned) [Ff-606]", "100 to 1000 nM"],
  ["CN(Cc1ccc(Br)c(C(F)F)c1)C(=O)c1cc2c(cc1F)nc(N)c1cncn12 [Ff-596]", "100 to 1000 nM"],
  ["Nc1nc2ccc(C(=O)N3CCC4(CC4)[C@@H]4Oc5cc(C(F)(F)F)ccc5[C@@H]43)cc2n2cncc12 [Ff-675]", "< 100 nM"],
  ["CN(C(=O)c1cc2c(cn1)nc(N)c1cncn12)[C@@H]1COc2cc(OC(F)(F)F)ccc21 [Ff-565]", "100 to 1000 nM"],
  ["COC[C@H](c1ccc(C(F)(F)F)cc1)N(C)C(=O)c1cc2c(cc1F)nc(N)c1cncn12 [Ff-431]", "100 to 1000 nM"]
]}

# batch: return CC50 for each of the 2 compounds below
1. Nc1nc2cc(F)c(C(=O)N3CCC(F)(F)C[C@@H]3c3ccc(OC(F)(F)F)cc3)cc2n2cncc12 [Ff-403]
2. Nc1nc2cc(Cl)c(C(=O)N3CC[C@H]4C[C@@H]3c3ccc(Cl)c(F)c34)cc2n2cncc12 [Ff-489]

1. 100 to 1000 nM
2. 100 to 1000 nM
